Reported TGI is given for each of the following compounds.
# Test system: SNB-19 CNS
# TEST METHOD NOTES: NCI tumour cell line growth inhibition, 48 h
ENDPOINT: TGI

compound="O=S(=O)(NC(c1ccccc1)(c1cc2ccccc2[nH]1)c1cc2ccccc2n1S(=O)(=O)c1ccccc1)c1ccccc1 (stereo not given)" endpoint=TGI result="> 100 µM"
compound=CCOC(=O)C#Cc1ccc(C#CC(=O)OCC)cc1 endpoint=TGI result="> 38.3 µM"
compound=CN(/N=N/c1nc(OCc2ccccc2)c2[nH]cnc2n1)C(=O)N(C)/N=N/c1nc(OCc2ccccc2)c2[nH]cnc2n1 endpoint=TGI result="> 100 µM"
compound=Fc1ccc(-c2nnc3sc(-c4cccc(Cl)c4)nn23)cc1Cl endpoint=TGI result="> 100 µM"
compound=CCN(CC)C(=S)N/N=C(\C)c1ccccc1O endpoint=TGI result="> 100 µM"
